Target: Neuropeptide FF receptor 2 (Homo sapiens, UniProt Q9Y5X5)
Sequence (Q9Y5X5 whole entry): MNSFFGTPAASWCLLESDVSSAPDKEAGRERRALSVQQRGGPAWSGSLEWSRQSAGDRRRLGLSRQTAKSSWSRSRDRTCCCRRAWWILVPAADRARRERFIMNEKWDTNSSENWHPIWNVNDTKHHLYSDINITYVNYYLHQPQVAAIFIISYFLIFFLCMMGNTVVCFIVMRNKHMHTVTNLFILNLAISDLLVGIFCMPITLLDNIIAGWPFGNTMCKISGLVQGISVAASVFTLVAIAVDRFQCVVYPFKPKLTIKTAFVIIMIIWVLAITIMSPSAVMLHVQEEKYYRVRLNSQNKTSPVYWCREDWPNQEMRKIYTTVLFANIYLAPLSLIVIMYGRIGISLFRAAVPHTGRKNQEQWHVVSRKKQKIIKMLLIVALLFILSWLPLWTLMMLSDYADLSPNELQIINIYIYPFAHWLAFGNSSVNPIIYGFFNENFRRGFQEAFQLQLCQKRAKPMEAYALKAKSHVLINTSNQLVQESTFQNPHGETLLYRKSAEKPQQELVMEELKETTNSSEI
Assay: Displacement of [3H]FFRF-NH2 from human flag-tagged NPFF2 receptor expressed in CHO cells at 5 uM by scintillation counting
Format: cell-based
Non-standard residues stand in square brackets, D forms with d. Residues, ends and D or L forms follow the SMILES beside them. Inp = O=C(O)C1CCNCC1
Measured parameter: inhibition (%)

Answered examples (2):
N=C(N)NCCC[C@@H](NC(=O)Cc1ccccc1)C(=O)N[C@H](Cc1ccccc1)C(N)=O :: 30
N=C(N)NCCC[C@H](NC(=O)C1CCNCC1)C(=O)N[C@@H](Cc1ccccc1)C(N)=O (H-[Inp]-Arg-Phe-NH2) :: 59

[A] COc1ccccc1C(=O)N[C@@H](CCCNC(=N)N)C(=O)N[C@@H](Cc1ccccc1)C(N)=O
[B] N=C(N)NCCC[C@H](NC(=O)c1ccc2ccccc2c1)C(=O)N[C@@H](Cc1ccccc1)C(N)=O
Query block: Hey, which is lower on measured inhibition, A or B ? Reply with the label of the item you choose.
Result block: A
(A: 19%, B: 56%)

###

Target: Neuropeptide FF receptor 2 (Homo sapiens)
Assay: Displacement of [3H]FFRF-NH2 from human flag-tagged NPFF2 receptor expressed in CHO cells at 500 nM by scintillation counting
Type: cell-based
Measured parameter: inhibition (%)

Answered examples (4):
N=C(N)NCCC[C@H](NC(=O)Cc1ccc(O)c(O)c1)C(=O)N[C@@H](Cc1ccccc1)C(N)=O :: 17
N=C(N)NCCC[C@H](NC(=O)/C=C/c1cccc(O)c1)C(=O)N[C@@H](Cc1ccccc1)C(N)=O :: 15
CCCCCCCCCCC(=O)N[C@@H](CCCNC(=N)N)C(=O)N[C@@H](Cc1ccccc1)C(N)=O :: 13
N=C(N)NCCC[C@@H](NC(=O)C(c1ccccc1)c1ccccc1)C(=O)N[C@@H](Cc1ccccc1)C(N)=O :: 84

[I] COc1cccc(CC(=O)N[C@@H](CCCNC(=N)N)C(=O)N[C@@H](Cc2ccccc2)C(N)=O)c1
[II] COc1ccc(/C=C/C(=O)N[C@@H](CCCNC(=N)N)C(=O)N[C@@H](Cc2ccccc2)C(N)=O)cc1OC
Query block: Thinking about recorded inhibition values, which is higher, I or II ? Reply with the label of the item you choose.
Result block: I

[I] N=C(N)NCCC[C@H](NC(=O)c1cccc(Cl)c1)C(=O)N[C@@H](Cc1ccccc1)C(N)=O
[II] CC(C)(C)c1ccc(C(=O)N[C@@H](CCCNC(=N)N)C(=O)N[C@@H](Cc2ccccc2)C(N)=O)cc1
Query block: Hey, which is lower on measured inhibition, I or II ? Reply with the label of the item you choose.
Result block: I
(I: 0%, II: 14%)

[1] COc1cccc(C(=O)N[C@@H](CCCNC(=N)N)C(=O)N[C@@H](Cc2ccccc2)C(N)=O)c1
[2] N=C(N)NCCC[C@H](NC(=O)/C=C/c1ccccc1O)C(=O)N[C@@H](Cc1ccccc1)C(N)=O
Query block: Hey, which is lower on measured inhibition, 1 or 2 ? Reply with the label of the item you choose.
Result block: 1

###

Molecular target: Neuropeptide FF receptor 1 (Homo sapiens, UniProt Q9GZQ6)
Sequence (Q9GZQ6 whole entry): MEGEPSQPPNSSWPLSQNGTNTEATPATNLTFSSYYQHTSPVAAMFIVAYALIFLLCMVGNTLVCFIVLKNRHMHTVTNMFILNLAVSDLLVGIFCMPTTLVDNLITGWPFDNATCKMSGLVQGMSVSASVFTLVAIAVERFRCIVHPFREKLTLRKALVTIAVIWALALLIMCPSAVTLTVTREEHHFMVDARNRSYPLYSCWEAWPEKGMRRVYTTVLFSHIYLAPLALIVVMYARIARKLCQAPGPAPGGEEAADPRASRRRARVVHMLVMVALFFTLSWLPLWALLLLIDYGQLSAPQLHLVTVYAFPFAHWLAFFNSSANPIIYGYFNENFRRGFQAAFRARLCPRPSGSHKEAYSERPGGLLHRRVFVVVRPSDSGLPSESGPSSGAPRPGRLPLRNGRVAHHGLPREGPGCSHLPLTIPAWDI
Assay: Displacement of [3H]FFRF-NH2 from human flag-tagged NPFF1 receptor expressed in CHO cells at 500 nM by scintillation counting
Assay type: cell-based
Measured parameter: inhibition (%)

Answered examples (5):
N=C(N)NCCC[C@H](NC(=O)Cc1ccc(O)c(O)c1)C(=O)N[C@@H](Cc1ccccc1)C(N)=O :: 0
N=C(N)NCCC[C@@H](NC(=O)c1cccc(-c2ccccc2)c1)C(=O)N[C@@H](Cc1ccccc1)C(N)=O :: 85
N=C(N)NCCC[C@@H](NC(=O)c1ccccc1-c1ccccc1)C(=O)N[C@H](Cc1ccccc1)C(N)=O :: 85
N=C(N)NCCC[C@@H](NC(=O)C(c1ccccc1)c1ccccc1)C(=O)N[C@H](Cc1ccccc1)C(N)=O :: 74
N=C(N)NCCC[C@@H](NC(=O)c1ccccc1)C(=O)N[C@@H](Cc1ccccc1)C(N)=O :: 80

[1] N=C(N)NCCC[C@H](NC(=O)C12CC3CC(CC(C3)C1)C2)C(=O)N[C@@H](Cc1ccccc1)C(N)=O
[2] N=C(N)NCCC[C@H](NC(=O)/C=C/c1cccnc1)C(=O)N[C@@H](Cc1ccccc1)C(N)=O
Query block: Thinking about recorded inhibition values, which is higher, 1 or 2 ? Reply with the label of the item you choose.
Result block: 1
(1: 60%, 2: 3%)

Hello, the source for this data is ChEMBL document CHEMBL2203185, in case you need it.
